Target: Dihydroorotate dehydrogenase (quinone), mitochondrial (Plasmodium falciparum (isolate 3D7)) (UniProt Q08210)
Sequence (Q08210 whole entry, looked up): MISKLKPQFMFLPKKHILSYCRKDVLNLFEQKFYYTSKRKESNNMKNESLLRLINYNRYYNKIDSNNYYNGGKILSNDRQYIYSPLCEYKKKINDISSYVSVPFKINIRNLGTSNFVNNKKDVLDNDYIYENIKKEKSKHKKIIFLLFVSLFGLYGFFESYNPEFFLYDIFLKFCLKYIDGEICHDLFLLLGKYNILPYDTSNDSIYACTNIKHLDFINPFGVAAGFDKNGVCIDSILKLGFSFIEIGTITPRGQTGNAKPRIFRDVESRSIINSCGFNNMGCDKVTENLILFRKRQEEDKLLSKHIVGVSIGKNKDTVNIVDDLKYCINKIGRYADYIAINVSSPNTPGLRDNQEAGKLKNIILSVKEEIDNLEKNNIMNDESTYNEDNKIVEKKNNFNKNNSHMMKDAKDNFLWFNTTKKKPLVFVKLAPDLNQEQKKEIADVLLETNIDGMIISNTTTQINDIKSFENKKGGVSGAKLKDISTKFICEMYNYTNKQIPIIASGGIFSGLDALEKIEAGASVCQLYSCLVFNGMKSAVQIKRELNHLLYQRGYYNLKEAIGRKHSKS
Assay: inhibition of P. falciparum DHODH – biochemical, C-terminal His tag, absorbance 600 nm, primary screen (AID 1175);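 further: recombinant parasite enzyme with a five histidine tag at its C terminus; test concentration not given here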
Settings: PfDHODH enzyme, DCIP absorbance 600 nm; higher = more signal, called active from +8 up or from −8 down
Mark 1.0 for reported composite z-score of -0.2 or greater; mark 0.0 for anything smaller.

CC(C)[Si](C#C[Si](C(C)C)(C(C)C)C(C)C)(O[C@H](c1ccccc1)c1cn(Cc2ccccc2)nn1)C(C)C; 1.0
C=CCN1C(=O)[C@]2(CCS(=O)(=O)c3ccccc3)N=C(c3ccc(OCCCO)cc3)O[C@@H]2c2ccccc21; 0.0
COC(=O)C1=CC(CCCO)=CC(c2cccs2)N(C)C=C1C(=O)OC (stereo not drawn); 1.0
O=C1N(Cc2ccccc2)c2ccccc2C[C@]12N=C(c1ccc(OCCCO)cc1)O[C@@H]2c1ccccc1; 1.0
COc1ccc([Si](C)(C)[C@H]2[C@H](CC(=O)N3CCC[C@H]3CO)O[C@@]3(C(=O)N(Cc4ccc(N5CCOC5=O)cc4)c4ccccc43)[C@@H]2C)cc1; 0.0
CC(c1ccccc1)C(O)C1C=CC2C(=O)N(C)C(=O)C2N1Nc1ccccc1 (stereo not drawn); 0.0
COc1cc(NN2C(C(O)c3ccco3)C=CC3C(=O)N(C)C(=O)C32)cc(OC)c1OC (stereo not drawn); 1.0
COCCCNC(=O)[C@@]1(CCC(=O)OC(C)(C)C)N=C(c2ccc(OCCCO)cc2)O[C@H]1c1ccccc1N=[N+]=[N-]; 0.0
COC(=O)[C@@]1(Cc2ccc(F)cc2)[C@H]2c3cc(C(=O)N4CCCC4)n(CCc4c[nH]c5ccccc45)c3C[C@H]2CN1C(=O)c1ccccc1; 1.0
C=CCC(OC(C)=O)[C@@H]1[C@@H](N(Cc2cccc3ccccc23)C(=O)Cc2ccc(F)cc2)c2cc(OCCCO)ccc2N1C(=O)c1ccc2ccccc2c1 (stereo partly drawn); 1.0

Asked: composite z-score >= -0.2 for COc1ccc([Si](C)(C)[C@@H]2[C@@H](CCO)O[C@]3(C(=O)N(Cc4ccccc4)c4ccc(N5CCOC5=O)cc43)[C@H]2C)cc1 ?
Given back: 0.0

====

composite z-score listing for selected compounds.
Test: probe aLefty2 binding to arrayed compounds – biochemical, biotinylated probe, 635/667 nm fluorescence, primary screen (AID 1094);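 further: score merges spot fluorescence near 667 nm with spot signal-to-noise ratio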
Conditions: small-molecule microarray, higher = more signal
Form field (numeric): enter value without unit.

COCC(=C=CC[C@H](O)c1ccccc1OCCO)C[C@H](O)c1ccccn1; -0.138

Recorded composite z-score (compound CCCCCN1CC=CC23O[C@@H]4/C=C\CCCOC(=O)C4[C@H]2C(=O)N(C(C)CO)[C@@H]3C1=O (stereo not given in full) ): -0.125

Recorded composite z-score (compound Cc1ccc(S[C@]2(C(=O)O)CC(=O)N(C3CCCCC3)[C@@H]2c2ccc(CO)cc2I)cc1 ): 0.274

Recorded composite z-score (compound CC(=O)N1CC2(CC2)CC1c1ccccc1 (stereo not given) ): 0.0423

Recorded composite z-score (compound Cc1ccc(F)cc1S(=O)(=O)N[C@@H]1CCN(Cc2ccc(Br)cc2)C1 ): -0.161

====

Assay: change in splice reporter luminescence, either direction, cell-based, HEK293, spliceosome inhibition project, primary screen (AID 1101);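 further: HEK293 cells carrying a splicing-competent luciferase reporter gene; test concentration not given here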
Details: HEK293 splicing luciferase reporter, 24 h, higher = more signal, called active from +8 up or from −8 down
z-score listing for selected compounds.
Form field (numeric): enter value without unit.

CCCC=C(CCC)[C@@H](NC(=O)C(C)(C)C)c1ccc(C(=O)OC)cc1; -0.58
O=C(O)[C@@H]1C[C@@H]2C(=O)N3CCC[C@H]3C(=O)N2[C@@H]1c1ccc(O)cc1; -2.2
CC(C)C(CO)N1C(=O)[C@@H]2C3C(=O)OCCC/C=C\[C@H]3OC23C=CCN(c2ccc4ccccc4c2)C(=O)[C@@H]13 (stereo partly specified); -0.298
O=C1O[C@@H](c2ccccc2)[C@@H](c2ccccc2)N2[C@@H](c3ccc(OCCO)cc3)[C@]3(C(=O)Nc4ccc(C#CC5=CCCCC5)cc43)[C@@H](C(=O)NC[C@H](O)c3ccccc3)[C@H]12; 0.556
COC(=O)[C@]1(CCS(=O)(=O)c2ccccc2)N=C(c2ccc(OCCCO)cc2)O[C@@H]1c1ccccc1N=[N+]=[N-]; -0.571
O=C(NCCN1CCOCC1)[C@@H]1c2ccccc2C(=O)N(C2Cc3ccccc3C2)[C@H]1c1ccc(CO)cc1; -1.38

Recorded z-score (compound CCCCCN1CC=CC23O[C@@H]4/C=C\CCCOC(=O)C4[C@H]2C(=O)N(C(C)CO)[C@@H]3C1=O (stereo partly specified) ): 0.1
